# Tgt: Rba. sphaeroides reaction centre (QB site) (Cereibacter sphaeroides, UniProt P0C0Y8)
# Construct: made in house; host or cells: Rba. sphaeroides strain DD13 carrying plasmid pvLMt (written pvLMtX)
# Protocol details: Kinetics of charge recombination in photo-oxidised reaction centres in solution (absorbance at 865 nm)
# Format: biochemical, Rhodobacter sphaeroides
# Conditions used: 500 µM inhibitor; amplitude of τ2 component
Parameter: A2 (%)
Numeric answer only, unit % assumed.

Here are 3 compounds together with their reported answers.
CN(C)C(=O)Nc1ccc(Cl)c(Cl)c1 [DCMU, 3-(3,4-dichlorophenyl)-1,1-dimethylurea] ... 48.3
N#Cc1cc(Br)c(O)c(Br)c1 [bromoxynil] ... 63.9
CC(C)N1C(=O)c2ccccc2NS1(=O)=O [bentazon] ... 61.0

# ---- query compound ----
Note to self: A2 of COc1cc(CNC(=O)CCCC/C=C/C(C)C)ccc1O [capsaicin] with Rba. sphaeroides reaction centre (QB site) (Cereibacter sphaeroides, UniProt P0C0Y8) was 59.0

###

# Tgt: Rba. sphaeroides reaction centre (QB site) (Cereibacter sphaeroides, UniProt P0C0Y8)
# Construct: made in house; host or cells: Rba. sphaeroides strain DD13 carrying plasmid pvLMt (written pvLMtX)
# Protocol details: Inhibition of photocurrent generation in photoelectrochemical cell with reaction centres adhered to a gold electrode
# Format: biochemical, Rhodobacter sphaeroides
Reported pKi values for the following molecules.
pKi is defined as minus the log10 of a concentration measured in mol/L.

CCNc1nc(NC(C)(C)C)nc(SC)n1 ... 6.91
CCNc1nc(Cl)nc(NC(C)C)n1 ... 5.92

# context switch: different molecule, same pKi
Consider C/C=C(C)/C=C/C=C/[C@H](OC)[C@@H](C)[C@@H](OC)[C@@H](C)CCc1oc2c(O)c(OC)cc(OC)c2c(=O)c1C . Its measured pKi is 6.78

###

# Tgt: Rba. sphaeroides reaction centre (QB site) (Cereibacter sphaeroides, UniProt P0C0Y8)
# Construct: made in house; host or cells: Rba. sphaeroides strain DD13 carrying plasmid pvLMt (written pvLMtX)
# Protocol details: Inhibition of photocurrent generation in photoelectrochemical cell with reaction centres adhered to a gold electrode
# Format: biochemical, Rhodobacter sphaeroides
# Conditions used: present study, detergent-free buffer
Parameter: inhibition of the QB site / photocurrent (in words)

CCNc1nc(NC(C)(C)C)nc(SC)n1 [terbutryn] ... strong inhibition
C/C=C(C)/C=C/C=C/[C@H](OC)[C@@H](C)[C@@H](OC)[C@@H](C)CCc1oc2c(O)c(OC)cc(OC)c2c(=O)c1C [stigmatellin] ... strong inhibition
CCNc1nc(Cl)nc(NC(C)C)n1 [atrazine] ... strong inhibition

###

# Tgt: Rba. sphaeroides reaction centre (QB site) (Cereibacter sphaeroides, UniProt P0C0Y8)
# Construct: made in house; host or cells: Rba. sphaeroides strain DD13 carrying plasmid pvLMt (written pvLMtX)
# Protocol details: Kinetics of charge recombination in photo-oxidised reaction centres in solution (absorbance at 865 nm)
# Format: biochemical, Rhodobacter sphaeroides
# Conditions used: 500 µM inhibitor, 13.2 µM reaction centres, 30 µM UQ0; ± standard error
# Procedure: Analysis of the effects of herbicides or inhibitors on the kinetics of charge recombination was performed using a Cary60 spectrophotometer connected to an external 1 cm cuvette holder (Ocean Optics) via a fibre-optic coupler. […] A set of eight kinetic traces were recorded for each sample, averaged, and fitted using a single or double exponential function in Origin 8 (OriginLab). […]
Parameter: τ1 (s)
Provide only the numeric value, understood in s.

CC(C)N1C(=O)c2ccccc2NS1(=O)=O ... 0.129

Given the compound CN(C)C(=O)Nc1ccc(Cl)c(Cl)c1 and test system Rba. sphaeroides reaction centre (QB site) (Cereibacter sphaeroides, UniProt P0C0Y8), the measured τ1 is 0.179

###

# Tgt: Rba. sphaeroides reaction centre (QB site) (Cereibacter sphaeroides, UniProt P0C0Y8)
# Construct: made in house; host or cells: Rba. sphaeroides strain DD13 carrying plasmid pvLMt (written pvLMtX)
# Protocol details: Kinetics of charge recombination in photo-oxidised reaction centres in solution (absorbance at 865 nm)
# Assay type: biochemical, Rhodobacter sphaeroides
# Conditions used: 500 µM inhibitor, 13.2 µM reaction centres, 30 µM UQ0; ± standard error
# key: entry, value: τ1
Provide a numeric answer, followed by its unit.

Use the examples below as a reference point.
C/C=C(C)/C=C/C=C/[C@H](OC)[C@@H](C)[C@@H](OC)[C@@H](C)CCc1oc2c(O)c(OC)cc(OC)c2c(=O)c1C ... 0.095 ± 0.003 s
CCNc1nc(Cl)nc(NC(C)C)n1 ... 0.212 ± 0.004 s
N#Cc1cc(Br)c(O)c(Br)c1 ... 0.038 ± 0.009 s
COc1cc(CNC(=O)CCCC/C=C/C(C)C)ccc1O ... 0.152 ± 0.011 s

Lab note: next molecule to report on.
Entry CCNc1nc(NC(C)(C)C)nc(SC)n1 — recorded τ1 = 0.152 ± 0.004 s
